# System: T-47D breast
# Method: NCI-60 one-dose screen, 48 h (100 = growth as untreated, 0 = no growth, -100 = all killed)
# Experimental parameters: 10 µM
This is part of a sample that, as a whole, favours compounds with a hit. Of some 83,000 tested, about 20% had one in any assay.
Endpoint: growth (%)

Molecule	Target under test	Reported measurement
Cc1c2cnccc2c(C)c2c1c1cc(O)ccc1n2C(C)C	T-47D breast	3.1
Cc1c2c(nn1C(=O)c1nn(-c3ccc(Cl)cc3)cc1O)-c1ccccc1CC2	T-47D breast	1.65
CCOC(=O)C1C(C(=O)OCC)C2C(=O)C3C(C(=O)OCC)C(C(=O)OCC)C3C(=O)C12 (stereo not given)	T-47D breast	100
COc1ccccc1N1CCCSC1=Nc1ccccc1	T-47D breast	107
COc1ccc(Cl)cc1Nc1nc(C(F)(F)F)ccc1C(=O)N/N=C/c1cc(OC)c(OC)c(OC)c1	T-47D breast	29.7
Cc1cc(Cl)ccc1Nc1nc(C(F)(F)F)ccc1C(=O)N/N=C/c1cccc(O)c1	T-47D breast	39.8
COc1ccc(-c2cc(-c3ccc(Cl)cc3)nc(SCCCCCCC(=O)NO)n2)cc1OC	T-47D breast	36.1
Cc1nn(-c2ccc(-c3ccc(OC(F)(F)F)cc3)cc2)c2nc(Cc3ccccc3)nc(N)c12	T-47D breast	49
O=C1c2c(c3c4ccccc4n(CCCCCCN4CCOCC4)c3c3[nH]c4ccccc4c23)C(=O)N1O	T-47D breast	79.9
Nc1ccc(-c2cccs2)cc1NC(=O)c1ccc(CCCC(=O)Nc2ccc(C3CC3N)cc2)cc1 (stereo not given)	T-47D breast	65.1

Values were extracted from PubChem BioAssay (NCI).
